target: FAAH (Homo sapiens, UniProt O00519); test: Assay Method 1: FAAH assay, 3H-anandamide hydrolysis in homogenate of T84 cells or SK-N-MC cells transfected with human FAAH; details: average of results, > = solubility limit or highest concentration tested
Where a name gives a salt, the structure may show the parent alone.
measured.property: IC50 (nM)
All answers are understood in nM, so give the number only.

INPUT: Which IC50 value belongs to O=C(Nc1cc(-c2ccccc2)[nH]n1)N1CCN(Cc2cccc(Oc3ccc(Cl)cc3)c2)CC1 [Example 244, trifluoroacetate salt] ?
OUTPUT: 1400

INPUT: Which IC50 value belongs to `O=C(Nc1cnccn1)N1CCN(Cc2cccc(Oc3ccc4ccccc4c3)c2)CC1` ?
OUTPUT: 30

INPUT: Which IC50 value belongs to `O=C(Nc1noc2ccccc12)N1CCN(Cc2cnc3ccccc3c2)CC1` ?
OUTPUT: 130

INPUT: Which IC50 value belongs to `O=C(Nc1noc2ccccc12)N1CCN(Cc2cccc(Oc3ccc(F)c(Cl)c3)c2)CC1` ?
OUTPUT: 34

###

Target: FAAH (Homo sapiens, UniProt O00519)
Sequence (O00519 1-579): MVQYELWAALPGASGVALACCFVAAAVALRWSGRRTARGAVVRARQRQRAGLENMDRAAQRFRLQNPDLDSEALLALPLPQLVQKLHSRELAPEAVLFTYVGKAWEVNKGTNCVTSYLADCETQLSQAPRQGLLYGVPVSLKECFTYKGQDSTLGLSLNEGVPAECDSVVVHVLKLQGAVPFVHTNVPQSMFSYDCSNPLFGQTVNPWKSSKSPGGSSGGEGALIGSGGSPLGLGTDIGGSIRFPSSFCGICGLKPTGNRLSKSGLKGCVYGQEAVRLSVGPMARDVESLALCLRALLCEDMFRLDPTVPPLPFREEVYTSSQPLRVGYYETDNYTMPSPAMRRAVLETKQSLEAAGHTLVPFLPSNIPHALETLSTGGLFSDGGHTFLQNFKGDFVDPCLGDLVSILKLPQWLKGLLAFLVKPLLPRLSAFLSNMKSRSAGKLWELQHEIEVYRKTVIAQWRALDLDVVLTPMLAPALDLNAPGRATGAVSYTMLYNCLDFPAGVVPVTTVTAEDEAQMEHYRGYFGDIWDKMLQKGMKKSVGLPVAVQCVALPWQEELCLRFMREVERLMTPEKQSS
Test: Assay Method 1: FAAH assay, 3H-anandamide hydrolysis in homogenate of T84 cells or SK-N-MC cells transfected with human FAAH
Conditions: average of results, > = solubility limit or highest concentration tested
Structures can show the parent of a compound that is named as a salt.
measured.property: pIC50
For clarity, pIC50 is expressed as the negative log10 of concentration in mol/L.

INPUT: Quick check: pIC50 on FAAH (Homo sapiens, UniProt O00519), item O=C(Nc1cccnn1)N1CCN(Cc2ccc3c(c2)OC(F)(F)O3)CC1 [Example 196] ?
OUTPUT: 5.22

INPUT: Quick check: pIC50 on FAAH (Homo sapiens, UniProt O00519), item O=C(Nc1nn[nH]n1)N1CCN(Cc2cccc(Oc3ccc(OCC(F)(F)F)cc3)c2)CC1 [Example 188] ?
OUTPUT: 7.10

INPUT: Quick check: pIC50 on FAAH (Homo sapiens, UniProt O00519), item O=C(Nc1cnccn1)N1CCN(Cc2cccc(C#Cc3ccccc3Cl)c2)CC1 [Example 78, hydrochloride salt] ?
OUTPUT: 7.23

INPUT: Quick check: pIC50 on FAAH (Homo sapiens, UniProt O00519), item O=C(Nc1cccc2nsnc12)N1CCN(Cc2cccc(Oc3cccc(C(F)(F)F)c3)c2)CC1 [Example 40, trifluoroacetic acid salt] ?
OUTPUT: 6.81

INPUT: Quick check: pIC50 on FAAH (Homo sapiens, UniProt O00519), item O=C(Nc1ccon1)N1CCN(Cc2cccc(Oc3ccc(OC(F)(F)F)cc3)c2)CC1 [Example 134] ?
OUTPUT: 8.00

INPUT: Quick check: pIC50 on FAAH (Homo sapiens, UniProt O00519), item O=C(Nc1noc2ccccc12)N1CCN(Cc2cccc(C#Cc3cccc(Cl)c3Cl)c2)CC1 [Example 90] ?
OUTPUT: 6.71

INPUT: Quick check: pIC50 on FAAH (Homo sapiens, UniProt O00519), item O=C(Nc1cnccn1)N1CCN(Cc2cc3ccccc3o2)CC1 [Example 230] ?
OUTPUT: 5.40

INPUT: Quick check: pIC50 on FAAH (Homo sapiens, UniProt O00519), item O=C(Nc1ccon1)N1CCN(Cc2cccc(Oc3ccc(F)c(C(F)(F)F)c3)c2)CC1 [Example 156] ?
OUTPUT: 7.37
